Assignment: determine reported phosphorylation enrichment for the given sequences.
Target Entity: Jak2 (UniProt O60674)
Sequence (O60674 whole entry, looked up): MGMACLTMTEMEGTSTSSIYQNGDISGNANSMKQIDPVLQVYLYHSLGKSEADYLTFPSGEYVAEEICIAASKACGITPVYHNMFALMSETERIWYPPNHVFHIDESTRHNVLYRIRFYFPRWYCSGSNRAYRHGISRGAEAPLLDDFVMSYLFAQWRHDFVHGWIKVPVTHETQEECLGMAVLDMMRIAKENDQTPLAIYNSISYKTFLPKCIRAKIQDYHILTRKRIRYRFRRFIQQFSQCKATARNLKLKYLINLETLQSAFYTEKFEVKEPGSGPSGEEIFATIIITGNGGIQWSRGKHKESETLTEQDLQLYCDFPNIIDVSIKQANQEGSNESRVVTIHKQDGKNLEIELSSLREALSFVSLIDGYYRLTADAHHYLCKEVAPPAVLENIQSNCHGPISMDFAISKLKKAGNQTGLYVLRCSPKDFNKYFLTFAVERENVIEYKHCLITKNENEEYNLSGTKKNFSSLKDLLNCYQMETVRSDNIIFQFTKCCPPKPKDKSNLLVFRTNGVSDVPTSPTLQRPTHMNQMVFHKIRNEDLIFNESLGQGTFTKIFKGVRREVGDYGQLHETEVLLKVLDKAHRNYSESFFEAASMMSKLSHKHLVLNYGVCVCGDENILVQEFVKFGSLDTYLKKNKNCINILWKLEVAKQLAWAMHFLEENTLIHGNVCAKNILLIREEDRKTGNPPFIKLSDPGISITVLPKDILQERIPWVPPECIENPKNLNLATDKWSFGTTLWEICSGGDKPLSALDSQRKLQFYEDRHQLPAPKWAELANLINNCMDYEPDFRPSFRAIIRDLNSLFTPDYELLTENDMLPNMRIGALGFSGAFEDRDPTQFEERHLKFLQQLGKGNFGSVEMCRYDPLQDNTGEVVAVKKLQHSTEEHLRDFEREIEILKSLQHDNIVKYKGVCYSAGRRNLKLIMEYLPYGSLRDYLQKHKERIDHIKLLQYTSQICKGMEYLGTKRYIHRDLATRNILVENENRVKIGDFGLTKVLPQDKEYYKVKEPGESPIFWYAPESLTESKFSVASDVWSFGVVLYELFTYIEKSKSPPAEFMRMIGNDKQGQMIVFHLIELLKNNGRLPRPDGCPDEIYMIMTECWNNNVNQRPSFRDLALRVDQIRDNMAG
Experiment Description: phosphorylation enrichment, bacterial display (enrichment ratio); higher = better substrate or ligand; peptides without Tyr show the background

QUERY: Item: EPSVDCCVVKI [CAD_Y735_Y735C] Test system: Jak2 (UniProt O60674) Read-out: phosphorylation enrichment Value: ?
RESULT: 1.01

QUERY: Proceed to SLNEEYAKNKT [MSH2_Y563_T564A]
RESULT: 0.791

QUERY: TIAIRYSHSRR [ACOXL_Y260] , same question.
RESULT: 0.785

====

Target Entity: Hck (UniProt P08631)
Sequence (P08631 whole entry, looked up): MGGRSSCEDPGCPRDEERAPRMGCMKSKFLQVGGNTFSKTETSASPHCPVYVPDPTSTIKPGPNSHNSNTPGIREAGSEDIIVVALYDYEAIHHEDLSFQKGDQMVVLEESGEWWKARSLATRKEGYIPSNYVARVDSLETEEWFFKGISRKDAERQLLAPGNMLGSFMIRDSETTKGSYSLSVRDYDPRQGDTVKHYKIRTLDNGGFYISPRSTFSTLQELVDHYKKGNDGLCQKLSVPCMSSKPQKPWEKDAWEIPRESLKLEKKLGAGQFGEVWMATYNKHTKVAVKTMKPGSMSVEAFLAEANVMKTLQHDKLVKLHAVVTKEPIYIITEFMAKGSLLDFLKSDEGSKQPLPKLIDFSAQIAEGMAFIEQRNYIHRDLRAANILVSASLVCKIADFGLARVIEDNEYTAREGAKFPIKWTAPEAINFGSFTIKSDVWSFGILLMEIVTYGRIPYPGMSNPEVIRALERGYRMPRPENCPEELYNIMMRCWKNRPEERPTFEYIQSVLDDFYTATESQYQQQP
Experiment Description: phosphorylation enrichment, bacterial display (enrichment ratio); higher = better substrate or ligand; peptides without Tyr show the background
Property Measured: phosphorylation enrichment

QUERY: GET /values?readout=phosphorylation enrichment&item= KTVQDYLEKFY [MMP8_Y36]
RESULT: 0.539

QUERY: Follow-up item: HMRLRYLAAEE [CEP120_Y884_Q879H]
RESULT: 0.53

QUERY: Moving on to GQDLFYEDEDL [PACS1_Y303]
RESULT: 0.737

====

Target Entity: Grb2 SH2 (UniProt P62993)
Sequence (P62993 whole entry, looked up): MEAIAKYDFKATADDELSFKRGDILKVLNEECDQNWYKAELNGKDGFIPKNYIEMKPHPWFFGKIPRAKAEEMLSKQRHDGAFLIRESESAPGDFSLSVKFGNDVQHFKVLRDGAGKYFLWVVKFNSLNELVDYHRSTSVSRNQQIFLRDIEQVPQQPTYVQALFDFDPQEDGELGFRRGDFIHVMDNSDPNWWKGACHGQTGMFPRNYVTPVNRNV
Experiment Description: SH2 binding enrichment of the phosphorylated peptide, bacterial display (enrichment ratio); higher = better substrate or ligand; peptides without Tyr show the background
Property Measured: SH2 binding enrichment
Response field accepts a number only; no unit should be typed.

QUERY: What value of SH2 binding enrichment on Grb2 SH2 (UniProt P62993) does LPPGTYPSDFT [UNC5B_Y511_A516T] have?
RESULT: 0.885

QUERY: Then what about the sequence AVEDQYYRVDC [FHL1_Y207_C209R] ?
RESULT: 0.949

QUERY: Now try HRNGMYGLHQD [SGSH_Y89_Q85R] .
RESULT: 0.939

QUERY: // next record LPKVSYVKAID [GLRA1_Y307]
RESULT: 0.868

QUERY: Could you do the same for VPLATYMRIYK [RPL21_Y30] , please?
RESULT: 0.668

QUERY: Proceed to RLRKFHLGKFL [KLB_Y906_Y906H_YF]
RESULT: 0.229

QUERY: Entry VGSEDYGWDLT [SPTAN1_Y1792_R1794W] please
RESULT: 0.824

QUERY: Param item: GIVTGYLVLKE [DNMT3B_Y588_A585V]
RESULT: 1.11

QUERY: Entry to check: AEMTGYVVTRW [MAPK13_Y182]
RESULT: 0.845

QUERY: Next up: KIFPEYLSNWT [AIFM1_Y347_L344F]
RESULT: 0.944

QUERY: Also need KFMVGYEMIAQ [GALT_Y339_L342I] , thanks.
RESULT: 0.914

QUERY: Also need HSFQCYGRNEA [ENTPD3_Y262] , thanks.
RESULT: 0.945

QUERY: Now consider PLRAFYLIARV [HLCS_Y635_D634Y_YF] and answer again.
RESULT: 0.996

QUERY: And what about the sequence AEKPKYQINNI [TJP1_Y1602] ?
RESULT: 0.906

QUERY: Now give it for AAFNKYDQERF [CDC73_Y293_R292K_YF] too.
RESULT: 0.867

QUERY: Okay, and QNWELYSEGLG [CNKSR1_Y665_R662W] ?
RESULT: 0.958

QUERY: Also check QQTFTYDSGIH [JUP_Y22_YF]
RESULT: 0.673

QUERY: Same question, FDFKKYGKGLR [ZNF445_Y433_YF] this time
RESULT: 1.19
